- Tested on: NCI-H23 lung
- assay.notes: NCI-60 one-dose screen, 48 h
- conditions.used: 10 µM
Compounds without any hit were thinned out: in the full panel of roughly 83,000, 20% have a hit. Calls of active or inactive are those of the source. How the source made its calls: active means growth percent below 10; inactive means the rest.
Lab note: assign the record to one of class 1 = active, class 0 = inactive

How did this test come out for O=C(CSc1nccc(Nc2cccc3ccccc23)n1)c1ccc(Cl)cc1 ?
class 0

How did this test come out for CCN(CC)CCOc1ccc2c(c1O)C(=O)c1ccccc1C2=O ?
class 0

How did this test come out for O=C1/C=C/[C@@H](O)[C@@H]2C[C@@H](O)C[C@H]2/C=C/CCC[C@H](C(F)(F)F)O1 ?
class 1

How did this test come out for C/C(=C/CCC(C)[C@@H]1CC[C@]2(C)C3=C(CC[C@@]12C)[C@@]1(C)CCC(=O)C(C)(C)[C@@H]1CC3)C(=O)O (some centres not stated) ?
class 1

How did this test come out for COc1cc(/C=C/c2cc(/C=C/c3ccc(O)c(OC)c3)[nH]c(=O)n2)ccc1O ?
class 0

How did this test come out for CC1C(=NC(=O)c2cnccn2)C(C)C(c2ccc(Cl)cc2)NC1c1ccncc1 (configuration not stated) ?
class 0

How did this test come out for N#Cc1c(N)nc(-c2cc(F)cc(C(F)(F)F)c2)nc1-c1ccccc1F ?
class 0

How did this test come out for COc1ccc(-c2nn(-c3cccc(Cl)c3)cc2-c2nc(N)[nH]c(=O)c2C#N)cc1 ?
class 0

How did this test come out for Cc1cc(C(C#N)c2ccc(Cl)cc2)c(Cl)cc1NC(=O)c1cc(I)cc(I)c1O (configuration not stated) ?
class 0

How did this test come out for COc1ccc(-c2n[nH]nc2-c2cc(OC)c(OC)c(OC)c2)cc1 ?
class 0

How did this test come out for COC1OC(COS(=O)OC)C(O)C(O)C1OS(=O)OC (configuration not stated) ?
class 0

How did this test come out for CC(C)(C)OC(=O)N1CCc2c(sc3ncnc(N/N=C/c4ccccc4Br)c23)C1 ?
class 0

How did this test come out for COc1cc(-c2nn(-c3cccc(NC(=O)CCNc4ccc(N5CCOCC5)cc4)c3)cc2-c2ccncc2)ccc1Cl ?
class 0

How did this test come out for CC1=CC2C(C(O)CC3(C)C2CC(C)C32OCOC23COCO3)C2(C)C/C(=C/O)C(=O)C=C12 (configuration not stated) ?
class 1

How did this test come out for CC(=O)Nc1ccc(CC[C@H]2CCC/C=C/[C@@H]3C[C@H](O)C[C@H]3[C@H](O)/C=C/C(=O)O2)cc1 ?
class 1

How did this test come out for O=C1/C(=C/c2ccc([N+](=O)[O-])s2)Oc2cc(Cl)ccc21 ?
class 0

How did this test come out for CCn1cc(CNc2ccc(C(=O)Nc3ccc4ccccc4c3)cc2)c(C)n1 ?
class 0
